test system: HEK-293T; assay: Multiplex assay against HEK293T; assay type: toxicity, cell-based; conditions: human, 24 h, 1 µM, compound concentration 1 uM
// values below are reported Population Pyknosed Nuclei (%)

{"columns": ["smiles.string", "Population Pyknosed Nuclei (%)"],
 "data": [
  ["Cc1nn(C)c2nc(NNC(=O)Nc3cc(Cl)nc(Cl)c3)cc(C(C)C)c12", "11%"],
  ["Cc1c(CC(=O)O)c2cccnc2n1Cc1ccc(S(C)(=O)=O)cc1C(F)(F)F", "10%"],
  ["COc1ccc2[nH]c(I)c(CCNC(C)=O)c2c1", "11%"],
  ["Cc1c(Cc2ccc3ccccc3n2)c2cc(F)ccc2n1CC(=O)O", "8%"]
]}
